Data provenance is patent US9550803B2.

Experiment: in vitro
Settings: human
endpoint: CC50 (µM)
Numbers only, in µM.

Recorded CC50, per entry:
compound	endpoint.unit	CC50
CCCCCCCCCCCCCCCCCCNC(=O)[C@@H](N)Cc1ccc(OP(=O)(O)CO[C@H](CO)Cn2cnc3c(N)ncnc32)cc1	µM	10
CCCCCCCCCCCCCCNC(=O)[C@@H](N)Cc1ccc(OP(=O)(O)CO[C@H](CO)Cn2cnc3c(N)ncnc32)cc1	µM	20
CCCCCCCCCCCCNC(=O)[C@@H](N)Cc1ccc(OP2(=O)CO[C@@H](Cn3cnc4c(N)ncnc43)CO2)cc1 (stereo partly shown)	µM	15
CCCCCCCCCCCCCCCCNC(=O)[C@@H](N)Cc1ccc(OP(=O)(O)CO[C@H](CO)Cn2cnc3c(N)ncnc32)cc1	µM	15
CCCCCCCCNC(=O)[C@@H](N)Cc1ccc(OP2(=O)CO[C@@H](Cn3cnc4c(N)ncnc43)CO2)cc1 (stereo partly shown)	µM	100

Count: 2. Required value per item: CC50.
1. CCCCCCCCCCCCCCNC(=O)[C@@H](N)Cc1ccc(OP2(=O)CO[C@@H](Cn3cnc4c(N)ncnc43)CO2)cc1 (stereo partly shown)
2. CCCCCCCCCCCCNC(=O)[C@@H](N)Cc1ccc(OP(=O)(O)CO[C@H](CO)Cn2cnc3c(N)ncnc32)cc1

1. 15
2. 15
